// reported Kd for each item listed
biological target: T1, Full-length murine RIIα (murine, UniProt P12367 2-401); test: fluorescence anisotropy, labeled peptide, n = 3
T1 construct: mature; given as full-length
T1 sequence (P12367 2-401): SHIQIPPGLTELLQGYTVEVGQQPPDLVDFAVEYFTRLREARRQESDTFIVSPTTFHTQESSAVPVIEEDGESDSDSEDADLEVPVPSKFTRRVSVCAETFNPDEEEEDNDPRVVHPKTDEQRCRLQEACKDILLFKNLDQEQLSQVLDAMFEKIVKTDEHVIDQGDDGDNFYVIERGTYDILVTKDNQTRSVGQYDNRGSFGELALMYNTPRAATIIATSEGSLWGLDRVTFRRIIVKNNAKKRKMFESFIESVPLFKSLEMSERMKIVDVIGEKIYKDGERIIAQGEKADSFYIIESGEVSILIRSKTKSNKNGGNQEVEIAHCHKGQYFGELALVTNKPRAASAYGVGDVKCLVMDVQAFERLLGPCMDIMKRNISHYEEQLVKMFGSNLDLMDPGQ
Ends that are not written are not given here.
Use nM as the unit, but write only the number.

binder: VQGNTDEAQEELLWKIAKMIVSDVMQQC(tetramethylrhodamine‑5‑maleimide)-NH2 (also called RIIα-specific (A13L)) [AKB (RII), RII specific (SEQ ID NO:109) VQGNTDEAQEELLWKIAKMIVSDVMQQC, rhodamine-labeled]
Kd / nM: 2.7

Input line: Suppose we examine the binder FEELAWKIAKMIWSDVFQQC(tetramethylrhodamine‑5‑maleimide)-NH2 (also called PV-38; RIα-specific (Q9F, V21W, M25F)) [AKB (RI), RI specific (SEQ ID NO:103) FEELAWKIAKMIWSDVFQQC, rhodamine-labeled] ; what Kd value has been reported?
Output line: 456

Input line: Give its Kd value. Item: VQGNTDEAQEELAWKIAKMIVSDVMQQC(tetramethylrhodamine‑5‑maleimide)-NH2 (also called unsubstituted peptide) [AKB (dual), WT (SEQ ID NO:108) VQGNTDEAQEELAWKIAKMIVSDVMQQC, rhodamine-labeled]
Output line: 2.2

Every entry's value here was drawn from patent US20030232420A1.
